The origin of these recorded values is patent US20260028391A1.

assayed-system: T1, RSV F B N201S (RSV B)
T1 construct: whole, on cells
experimental-details: FACS, % binding to RSV F B variants
Can you tell me % binding for the items I'm about to list?
Quick reminder: number only, in %, skip the unit.

Return % binding for the following binder: MPK65-v2-v3.1 (antibody, V domains shown) VH: QVPLVQSGAEVKKPGESLKISCKGSGYSFISYWIGWVRQMPGKGLEWMGVIYPFDADTKYSPSFQGHVTISADKSSNTAYVQWSSLKASDTAMYYCARFTFGIAVVTDDVSGEGQAFEIWGQGTMVTVSS VL: EIVMMQSPATLSVSPGERATLSCRASQSVAGNLAWYQQRPGQAPRLLIYGASTRATGVPARFSGSGSETEFTLTISSLQSEDFAVYYCHQYSNWPQAFGQGTRLDIK
31.3

Return % binding for the following binder: MPK176-v1.3 (antibody, V domains shown) VH: QVQLVQSGAEVKKPGASVRVSCKASGYTLTAYGISWVRQAPGQGLEWMGWISPKHGNTHYAQRFQGRVTMTTDTSTSTAYMELRSLRPDDTAVYFCAREGVDIMAVPWYFDYWGQGTLVAVSS VL: SYVLTQPPSVSVAPGQTARISCGGNNIGSKSVHWYQQKPGQAPVVVVYDDSKRPSGIPERFSGSNSGNTATLTISGVEAGDEADYFCQVWDSATDHWVFGGGTKLTVL
60.2

Return % binding for the following binder: MPK190-v1.3-rIgG1m17,1-LS (antibody, V domains shown) VH: QVQLVESGGGLVKPGGSLTLSCAASGFSISGYGMNWVRQAPGRGLEWVASISASSTYIYYADSMKGRFTISRDNGKTSLYLQMKSLRAEDTAVYYCARAPIEPPYFDLWGRGTLVTVSS VL: QSVLTQPPSVSGAPGQRVTISCTGSSSNIGAGYDVHWYQHLPGKAPKVLIYGNTNRPSVVPDRFSGSNSGASASLAISGLQAEDEADYFCQSYDRRLSGPIFGGGTKLTVLG
63.1

Return % binding for the following binder: MPK201-v1.2 (antibody, V domains shown) VH: EVQLVQSGAEVKKPGESLKISCQGSGYSFINYWIGWVRQKPGKGLEWMGIIYPFDSETKYSPSFQGHVTFSADKSINTAYVQWSSLRASDTAMYYCARFTFGLAVTTADVSGEGQAFEIWGQGTMVTVSS VL: QIVMMQSPATLSVSPGERATLSCRASQSVAGNLAWYQQRPGQAPRLLVYGASTRASGVPARFSGSGSETEFTLTISSLQSEDFAVYYCHHYSDLPQAFGQGTRLDIK
47.7
